Here, each record is paired with measured pEC50 data.
# Tested on: human lung tumor cell line LX-T
# Assay Method Text: Antitumor effect against human lung tumor cell line LX-T (clonogenic assay / DNA flow cytometry with DAPI, Example 5)
# Assay type: cell-based
# Conditions Used: read-out: ED(50)
pEC50: −log10 of the molar value.

Molecule	pEC50
COc1cccc2c1C(=O)c1c(O)c3c(c(O)c1C2=O)C[C@@](O)(C(=O)CO)C[C@@H]3O[C@H]1C[C@H](N)[C@H](O)[C@H](C)O1 [Adriamycin, reference compound]	4.59
O=c1[nH]cc(F)c(=O)[nH]1 [Composition 5-FU, reference compound]	3.99
CO[C@@]12[C@H](COC(N)=O)C3=C(C(=O)C(C)=C(N)C3=O)N1C[C@@H]1N[C@@H]12 [Mutamycin, reference compound]	4.73
